Target: UniProtKB P45452
Test: MMP-13 inhibition (thiopeptide or fluorescent peptide substrate assay)
Type: biochemical
Conditions: read-out: MMP-13 IC50
As shown below, each of these molecules has a reported pIC50 value.
Note on pIC50: it is the negative log10 of concentration, concentration in mol/L.

COc1ccc(S(=O)(=O)N(Cc2ccccc2)c2c(OCCO)cccc2C(=O)NO)cc1 [Example 345]
6.87
COc1ccc(S(=O)(=O)N(Cc2ccccc2)c2c(Br)cccc2C(=O)NO)cc1 [Example 201]
7.57
COc1ccc(S(=O)(=O)N(Cc2ccccc2)c2cc3ccccc3cc2C(=O)NO)cc1 [Example 94]
6.68
COc1ccc(S(=O)(=O)N(Cc2ccsc2)c2c(CN3CCN(C)CC3)cccc2C(=O)NO)cc1 [Example 328]
7.89
COc1ccc(S(=O)(=O)N(C)c2c(CN3CCCC3)cccc2C(=O)NO)cc1 [Example 310]
7.00

Please examine the following record next.
Noted pIC50 for COc1ccc(S(=O)(=O)N(C)c2c(C)cc(C#Cc3ccc(-c4ccccc4)cc3)cc2C(=O)NO)cc1 [Example 353] , tested on UniProtKB P45452: 6.85

----------
Molecular target: MMP-1 (Homo sapiens, UniProt P03956)
Sequence (P03956 100-469): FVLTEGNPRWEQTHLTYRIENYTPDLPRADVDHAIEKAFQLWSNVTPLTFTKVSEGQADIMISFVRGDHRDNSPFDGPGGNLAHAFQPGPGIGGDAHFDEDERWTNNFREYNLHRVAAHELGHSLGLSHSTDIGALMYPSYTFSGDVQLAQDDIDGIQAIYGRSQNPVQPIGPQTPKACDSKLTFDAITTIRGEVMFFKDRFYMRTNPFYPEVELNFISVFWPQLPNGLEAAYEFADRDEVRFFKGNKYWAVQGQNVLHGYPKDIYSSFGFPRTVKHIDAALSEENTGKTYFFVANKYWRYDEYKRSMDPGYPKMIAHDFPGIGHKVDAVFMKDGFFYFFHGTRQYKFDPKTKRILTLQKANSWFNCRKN
Test: MMP-1 inhibition (thiopeptide or fluorescent peptide substrate assay)
Assay type: biochemical
Settings: read-out: MMP-1 IC50
In this section, each of the compounds is paired with its reported IC50.
// note: answer is a bare numeric in nM

Reference set (2 entries):
COc1ccc(S(=O)(=O)N(Cc2ccccc2)c2cc(C)ccc2C(=O)NO)cc1 [Example 26]
884
COc1ccc(S(=O)(=O)N(Cc2ccccc2)c2c(C)ccc(C)c2C(=O)NO)cc1 [Example 292]
184

The reported value for CCc1cc(C)c(N(Cc2cccnc2)S(=O)(=O)c2ccc(OC)cc2)c(C(=O)NO)c1 [Example 277] in terms of IC50 is 56

Lookup result for CCN(Cc1ccncc1)C(=O)C=Cc1cc(C)c(N(C)S(=O)(=O)c2ccc(OC)cc2)c(C(=O)NO)c1 [Example 219] ; measured IC50: 290

----------
Molecular target: TACE (Homo sapiens)
Sequence (P78536 215-824): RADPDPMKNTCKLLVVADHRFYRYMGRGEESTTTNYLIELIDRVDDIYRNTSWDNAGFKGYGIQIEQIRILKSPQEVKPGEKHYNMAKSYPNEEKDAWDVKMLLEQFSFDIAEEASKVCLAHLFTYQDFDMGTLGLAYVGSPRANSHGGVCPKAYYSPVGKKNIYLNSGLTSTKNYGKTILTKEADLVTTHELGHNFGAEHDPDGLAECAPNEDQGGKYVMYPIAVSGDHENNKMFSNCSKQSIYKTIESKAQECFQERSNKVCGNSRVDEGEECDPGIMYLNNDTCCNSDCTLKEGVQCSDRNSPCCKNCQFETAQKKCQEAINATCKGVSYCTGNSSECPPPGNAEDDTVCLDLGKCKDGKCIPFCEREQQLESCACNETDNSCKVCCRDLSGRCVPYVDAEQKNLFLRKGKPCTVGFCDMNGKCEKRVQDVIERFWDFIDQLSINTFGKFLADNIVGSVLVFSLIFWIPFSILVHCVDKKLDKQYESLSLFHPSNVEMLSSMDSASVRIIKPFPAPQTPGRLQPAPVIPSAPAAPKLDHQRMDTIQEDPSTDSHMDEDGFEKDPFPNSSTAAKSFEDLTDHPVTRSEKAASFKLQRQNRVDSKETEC
Assay: TACE inhibition (fluorescent peptidyl substrate)
Format: biochemical
# pIC50 per entry
Worth noting: pIC50 values are minus log10 of concentrations stated in mol/L.

Example entries begin here.
COc1ccc(S(=O)(=O)N(Cc2ccc(N3CCN(C)CC3)cc2)c2c(C)cccc2C(=O)NO)cc1
6.84
COc1ccc(S(=O)(=O)N(Cc2ccc(OCCN3CCCCC3)cc2)c2c(C)cccc2C(=O)NO)cc1
6.56
COc1ccc(S(=O)(=O)N(C)c2c(CN3CCOCC3)cccc2C(=O)NO)cc1
6.76

Attention now turns to another entry.
Record COc1ccc(S(=O)(=O)N(C)c2c(C)cc(C=CC(=O)N(C)C)cc2C(=O)O)cc1 . Reported pIC50: 6.63
